- System: BLK
- conditions-used: concentration: 1 μM, replicates: in singlicate; n = 1;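 also: KINOMEscan kinase panel screen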
Answer each item with its documented %Inh.
One number for each entry, in %.

Some solved entries appear below for comparison.
                    structure_smiles_string  experimental_endpoint  result_unit  observed
0  CCn1c(-c2nonc2N)nc2c(-c3ccccc3)ncc(OCCCN)c21.O=C(O)C(F)(F)F.O=C(O)C(F)(F)F                   %Inh            %        20
1  CN(c1ccc(F)c(NC(=O)c2cccc(OC(C)(C)C#N)c2Cl)c1)c1ccc2nc(NC(=O)C3CC3)sc2n1                   %Inh            %      96.3
2  Cn1cc(-c2cnc(N)c3c(-c4ccc5c(c4)CCN5C(=O)Cc4ccccc4)csc23)cn1                   %Inh            %        93
3  COc1cccc2c(-c3ccncc3)c(-c3ccc(F)cc3)nn12                   %Inh            %        49

Continue with the molecule presented below.
Could you share which %Inh value was measured for Nc1cccc(-c2ccc3c(N)n[nH]c3c2)c1 ?
87

###

- Test system: CSF1R-autoinhibited
- conditions-used: concentration: 1 μM, replicates: in singlicate; n = 1
experimental-endpoint: %Inh (%)
One number for each entry, in %.

                                   molecule  observed
0  Cl.O=C(Nc1ccc(Oc2ccc3[nH]c(NC(=O)c4ccco4)nc3c2)cc1)Nc1cc(C(F)(F)F)ccc1F [GW683134]         0
1  Fc1cc(Cl)ccc1Nc1ccnc2cc(-c3ccc(CN4CCOCC4)o3)ccc12 [GW560109]         7

Each molecule below has a reported value. Please supply its %Inh.
1. Nc1ncc(-c2ccc3nccc(-c4ccncc4)c3c2)cc1S(=O)(=O)N1CCCCC1 [GSK1693850]
2. COc1ccc(C)c(Nc2ccnc(Nc3ccc(-c4cnc[nH]4)cc3)n2)c1.Cl [GW784041]
3. Cc1ccc(NC(=O)c2ccc(Cl)c(Cl)c2)cc1-c1ccc(C(=O)Nc2ccncc2)cc1 [GSK1398460]

1: 0; 2: 0; 3: 7

###

Answer each item with its documented %Inh.
- System: BMPR2
- conditions-used: concentration: 1 μM, replicates: in singlicate; n = 1
Give bare numbers, in %.

                    structure_smiles_string  experimental_endpoint  observed
0  Cc1ccc(NC(=O)c2ccc(Cl)c(Cl)c2)cc1-c1ccc(C(=O)Nc2ccncc2)cc1                   %Inh         0
1  Nc1ncc(-c2cn[nH]c2)c2scc(-c3ccc4c(c3)CCN4C(=O)Cc3ccccc3)c12                   %Inh         0
2  Cc1ccc(O)cc1Nc1ccnc2cc(-c3ccc(CN4CCCCC4)o3)ccc12                   %Inh         0

Continue with the compound presented below.
Could you share which %Inh value was measured for O=C(O)C(F)(F)F.O=c1[nH]ccc2nc(N[C@@H]3CCNC3)nc(Nc3cc(Cl)cc(Cl)c3)c12 ?
70

###

- Tested on: ROS1
- conditions-used: concentration: 1 μM, replicates: in singlicate; n = 1
Answer each item with its documented %Inh.
Numbers only, in %.

Some solved entries appear below for comparison.
>>> df
                                   compound  system_name  experimental_endpoint  result_unit  observed
0  COc1cc(Nc2nccc(N3CCC(NS(=O)(=O)c4ccc(NC(C)=O)cc4)CC3)n2)cc(OC)c1OC         ROS1                   %Inh            %        48
1  Cc1cc(-c2c(-c3ccc(F)cc3)ncn2CCCN2CCOCC2)nc(N)n1         ROS1                   %Inh            %        19

Each compound below has a reported value. Please supply its %Inh.
1. CN(C)c1ncnc2nc[nH]c12
2. O=C1NC(=O)C(c2ccccc2Cl)=C1Nc1cccc(Cl)c1
3. O=C(Nc1n[nH]c2nc(-c3ccccc3)ccc12)C1CC1
4. Cc1ccccc1CC(=O)N1CCc2cc(-c3cn(C)c4ncnc(N)c34)ccc21
5. COc1ccc(NC(=O)c2ccoc2)cc1-c1ccc(C(=O)NCC2CC2)cc1
6. CNc1nccc(-c2ccc3c(N)n[nH]c3c2)n1
7. NCCC(NC(=O)c1cc(Br)c(-c2ccnc3[nH]ccc23)s1)c1ccccc1.O=C(O)C(F)(F)F.O=C(O)C(F)(F)F (stereo not drawn)

0
0
0
2
0
22
29

Attribution: paper PMC5540273
